Here the recorded Kd is given for each entry.
target.under.test: T1, Human BCMA (human, UniProt Q02223 1-54, limits assumed)
T1 construct: Soluble analyte in SPR; construct not described; also called huBCMA; B-cell maturation antigen
T1 sequence (looked up): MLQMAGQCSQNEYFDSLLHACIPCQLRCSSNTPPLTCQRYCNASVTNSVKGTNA
experimental.protocol: SPR, IgG immobilised, 25 C
The response must be a number in nM with no trailing unit.

Past entries and their recorded results:
binder	reading.unit	Kd
L1.LGF/L3.NY/H3.AP (antibody, V domains shown, IgG) VH: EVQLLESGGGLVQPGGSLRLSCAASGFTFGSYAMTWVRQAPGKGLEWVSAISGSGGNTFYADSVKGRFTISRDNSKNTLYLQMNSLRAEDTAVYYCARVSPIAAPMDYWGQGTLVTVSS VL: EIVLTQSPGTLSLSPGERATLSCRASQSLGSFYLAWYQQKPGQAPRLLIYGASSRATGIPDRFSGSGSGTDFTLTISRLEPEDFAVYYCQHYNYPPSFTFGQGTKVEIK	nM	0.57
L1.LGF/L3.PY/H3.AQ (antibody, V domains shown, IgG) VH: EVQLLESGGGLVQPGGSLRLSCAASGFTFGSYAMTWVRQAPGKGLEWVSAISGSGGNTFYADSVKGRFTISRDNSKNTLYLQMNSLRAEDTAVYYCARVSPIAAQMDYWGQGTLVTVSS VL: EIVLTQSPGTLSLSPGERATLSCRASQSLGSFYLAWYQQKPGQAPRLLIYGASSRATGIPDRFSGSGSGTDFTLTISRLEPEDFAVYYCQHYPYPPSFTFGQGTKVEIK	nM	0.95

We next turn to a different binder, shown below.
Entry L3.KW/P6E01 (antibody, V domains shown, IgG) VH: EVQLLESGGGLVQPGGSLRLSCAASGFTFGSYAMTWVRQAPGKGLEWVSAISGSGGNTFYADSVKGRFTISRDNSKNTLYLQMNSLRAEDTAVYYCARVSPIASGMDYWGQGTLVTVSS VL: EIVLTQSPGTLSLSPGERATLSCRASQSVSSSYLAWYQQKPGQAPRLLIYGASSRATGIPDRFSGSGSGTDFTLTISRLEPEDFAVYYCKHYGWPPSFTFGQGTKVEIK has what Kd?
0.43

Origin of values: patent US20160297884A1
